- experimental.target: AURKB (Aurora B) enzyme (Homo sapiens, UniProt Q96GD4)
- Construct: purchased Invitrogen PVR 130
- Sequence (Q96GD4 whole entry): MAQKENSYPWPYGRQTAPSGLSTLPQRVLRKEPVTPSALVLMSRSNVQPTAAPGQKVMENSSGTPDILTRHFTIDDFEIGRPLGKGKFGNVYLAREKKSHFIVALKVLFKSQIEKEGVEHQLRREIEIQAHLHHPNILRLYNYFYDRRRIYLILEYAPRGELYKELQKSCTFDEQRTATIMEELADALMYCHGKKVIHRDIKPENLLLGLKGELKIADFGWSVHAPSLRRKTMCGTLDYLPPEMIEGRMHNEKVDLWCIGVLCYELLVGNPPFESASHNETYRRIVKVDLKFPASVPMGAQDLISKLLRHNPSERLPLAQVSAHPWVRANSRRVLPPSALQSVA
- assay.text: Aurora B HTRF assay
- Format: biochemical
- condition.context: read-out: AuroraB IC50
pIC50: −log10 of the molar value.
measure: pIC50

Asked: Report pIC50 for O=S(=O)(c1cccc2cccnc12)n1ccc2cnc(Nc3ccc(CN4CCCC(CO)C4)cc3)nc21 (stereo not shown) tested on AURKB (Aurora B) enzyme (Homo sapiens, UniProt Q96GD4).
Given back: > 7.70

Asked: Report pIC50 for Cc1nn(S(=O)(=O)c2ccccc2OC(F)(F)F)c2cc(Nc3ccc4c(c3)CCC(=O)N4)ncc12 tested on AURKB (Aurora B) enzyme (Homo sapiens, UniProt Q96GD4).
Given back: > 7.70

Asked: Report pIC50 for CC(=O)Nc1ccc(Nc2ncc3ccn(Cc4cccnc4N(C)S(C)(=O)=O)c3n2)cc1 tested on AURKB (Aurora B) enzyme (Homo sapiens, UniProt Q96GD4).
Given back: > 7.70

Asked: Report pIC50 for O=S(=O)(c1cccc2cccnc12)n1ccc2cnc(Nc3ccc(N4CCC(O)CC4)cc3)nc21 tested on AURKB (Aurora B) enzyme (Homo sapiens, UniProt Q96GD4).
Given back: > 7.70

Asked: Report pIC50 for O=C1CCc2cc(Nc3ncc4ccn(Cc5cccnc5N5CCCS5(=O)=O)c4n3)ccc2N1 tested on AURKB (Aurora B) enzyme (Homo sapiens, UniProt Q96GD4).
Given back: > 7.70

Asked: Report pIC50 for O=S(=O)(c1cccc2cccnc12)n1ccc2cnc(Nc3ccc(N4CCNCC4)c(F)c3)nc21 tested on AURKB (Aurora B) enzyme (Homo sapiens, UniProt Q96GD4).
Given back: > 7.70

Asked: Report pIC50 for COc1cc(Nc2ncc3ccn(S(=O)(=O)c4cccc5cccnc45)c3n2)ccc1N1CCN(CCO)CC1 tested on AURKB (Aurora B) enzyme (Homo sapiens, UniProt Q96GD4).
Given back: > 7.70

Asked: Report pIC50 for CN(c1ncccc1Cn1ccc2cnc(Nc3ccc4c(c3)C(C)(C)CC(=O)N4)nc21)S(C)(=O)=O tested on AURKB (Aurora B) enzyme (Homo sapiens, UniProt Q96GD4).
Given back: > 7.70

Asked: Report pIC50 for C[C@H](O)CN1CCN(c2ccc(Nc3cc4c(ccn4S(=O)(=O)c4ccccc4C#N)cn3)cc2)CC1 tested on AURKB (Aurora B) enzyme (Homo sapiens, UniProt Q96GD4).
Given back: > 7.70

###

- experimental.target: recombinant human FAK1 (Homo sapiens)
- Construct: fused on or other part: N-terminal 6xHis tag
- Sequence (Q05397 422-680 limits assumed): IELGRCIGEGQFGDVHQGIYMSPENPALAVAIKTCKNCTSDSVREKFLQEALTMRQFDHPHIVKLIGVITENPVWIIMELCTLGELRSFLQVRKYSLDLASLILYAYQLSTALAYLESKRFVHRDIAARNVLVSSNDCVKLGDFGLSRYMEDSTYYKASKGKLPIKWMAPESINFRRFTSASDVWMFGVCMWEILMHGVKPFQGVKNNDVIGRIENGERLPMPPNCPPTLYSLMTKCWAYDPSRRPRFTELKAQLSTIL
- assay.text: FAK1 HTRF assay
pIC50: −log10 of the molar value.
Reported values of pIC50 for individual entries

Asked: Report pIC50 for COc1cc(Nc2ncc3ccn(S(=O)(=O)c4cccc5cccnc45)c3n2)ccc1N1CCNCC1 tested on recombinant human FAK1 (Homo sapiens).
Given back: > 7.70

Asked: Report pIC50 for CN(c1ncccc1Cn1ccc2cnc(Nc3ccc4[nH]c(=O)[nH]c4c3)nc21)S(C)(=O)=O tested on recombinant human FAK1 (Homo sapiens).
Given back: > 7.70

Asked: Report pIC50 for O=S(=O)(c1ccccc1OC(F)(F)F)n1ncc2cnc(Nc3ccc4ncsc4c3)cc21 tested on recombinant human FAK1 (Homo sapiens).
Given back: < 6.00

Asked: Report pIC50 for CC1(C)CN(S(=O)(=O)c2cccc3cccnc23)c2nc(Nc3ccc4c(c3)CCC(=O)N4)ncc21 tested on recombinant human FAK1 (Homo sapiens).
Given back: > 7.70

Asked: Report pIC50 for CC(=O)Nc1ccccc1Nc1ncc2ccn(Cc3cccnc3N(C)S(C)(=O)=O)c2n1 tested on recombinant human FAK1 (Homo sapiens).
Given back: < 6.00

Asked: Report pIC50 for CN(c1ccccc1Cn1ccc2cnc(Nc3ccc(N4CCNCC4)c(F)c3)nc21)S(C)(=O)=O tested on recombinant human FAK1 (Homo sapiens).
Given back: > 7.70

Asked: Report pIC50 for C[C@@H]1CNCCN1c1ccc(Nc2ncc3ccn(S(=O)(=O)c4cccc5cccnc45)c3n2)cc1 tested on recombinant human FAK1 (Homo sapiens).
Given back: > 7.70

Asked: Report pIC50 for CC(=O)N1CCN(c2ccc(Nc3ncc4ccn(Cc5ccccc5N(C)S(C)(=O)=O)c4n3)cc2)CC1 tested on recombinant human FAK1 (Homo sapiens).
Given back: > 7.70

Asked: Report pIC50 for COc1cc(N2CCNCC2)ccc1Nc1ncc2ccn(S(=O)(=O)c3ccccc3C#N)c2n1 tested on recombinant human FAK1 (Homo sapiens).
Given back: > 7.70

Asked: Report pIC50 for CN(c1ccccc1Cn1ncc2cnc(Nc3ccc4c(c3)CCC(=O)N4)cc21)S(C)(=O)=O tested on recombinant human FAK1 (Homo sapiens).
Given back: > 7.70

Asked: Report pIC50 for COc1cc(N2CCNCC2)ccc1Nc1cc2c(cn1)C(C)(C)CN2S(=O)(=O)c1cccc2cccnc12 tested on recombinant human FAK1 (Homo sapiens).
Given back: > 7.70

Asked: Report pIC50 for Cc1cc(Nc2ncc3ccn(S(=O)(=O)c4cccc5cccnc45)c3n2)ccc1N1CCNCC1 tested on recombinant human FAK1 (Homo sapiens).
Given back: > 7.70

Asked: Report pIC50 for C[C@H](O)CN1CCN(c2ccc(Nc3ncc4ccn(Cc5ccccc5N(C)S(C)(=O)=O)c4n3)cc2)C[C@@H]1C tested on recombinant human FAK1 (Homo sapiens).
Given back: > 7.70

Asked: Report pIC50 for O=c1[nH]c2ccc(Nc3ncc4ccn(S(=O)(=O)c5ccccc5OC(F)F)c4n3)cc2[nH]1 tested on recombinant human FAK1 (Homo sapiens).
Given back: > 7.70

Asked: Report pIC50 for Cc1cc(Nc2cc3c(ccn3S(=O)(=O)c3cccc4cccnc34)cn2)ccc1N1CCNCC1 tested on recombinant human FAK1 (Homo sapiens).
Given back: > 7.70

Asked: Report pIC50 for FC(F)(F)c1cccc(Nc2cc3c(ccn3Cc3cccnc3)cn2)c1 tested on recombinant human FAK1 (Homo sapiens).
Given back: < 6.00
